targetDesc: LAMC1
testDetails: pooled miR-30 sensor sort-seq; sequence = guide strand; note: reference of the scale not given here
recordedConditions: shRNA
Reported sensor-assay potency score (higher = more potent) values follow for various sequences
measuredMetric: sensor-assay potency score (higher = more potent)

| polymerSequence | targetDesc | reported |
| --- | --- | --- |
| TTCGCTTGTTCATACTTCCTAT | LAMC1 | 0.107 |
| TTCTTTTGGACAGCGCTCGCGA | LAMC1 | -0.297 |
| TAGGACTTGAGAACTTTGGGAT | LAMC1 | 0.474 |
| TATGAGACTCTCTAATTCCTGG | LAMC1 | -0.463 |
| TTCAATATTACATTCATCTATG | LAMC1 | -0.485 |
| TTCCTTTAGTCTATCCTCGAAG | LAMC1 | -0.66 |
| TCGTTCTTCATACACTCGCTTG | LAMC1 | -1.26 |
| TTCATCAGTACACAAGGCCTGC | LAMC1 | -0.475 |

---

targetDesc: GPAA1
testDetails: pooled miR-30 sensor sort-seq; sequence = guide strand
recordedConditions: shRNA
Kind request: treat -1 as inclusive, so sensor-assay potency score (higher = more potent) at -1 or higher is 1, anything lower is -1.

| polymerSequence | answerLabel |
| --- | --- |
| TGAGCTTGCGGAACATGCCCTC | 1 |
| TTCAGTGCCATCCAGCCCCTGT | 1 |
| AAAACCAGCGCCAAGAACCAGG | -1 |
| TAGCTCAGCACGCACAACGGCG | -1 |
| TTTCCGGGAGAAACTCTGCGTG | 1 |
| TTGAGGCGCAGCACTAGGCGGG | 1 |
| TATAGCGCTCGTGGGTCTCATC | -1 |

---

Reported sensor-assay potency score (higher = more potent) values follow for various sequences
targetDesc: FASN
testDetails: pooled miR-30 sensor sort-seq; sequence = guide strand
recordedConditions: shRNA
measuredMetric: sensor-assay potency score (higher = more potent)

| polymerSequence | reported |
| --- | --- |
| TAGAGGTGCTGAGCCAGCGGGC | -1.55 |
| TTGGAGAGCAGCACACACCGGA | -0.273 |
| TAGTAGACCGTGCAGAGCTGGG | -0.853 |
| TTGAGCTCCTGCAGCAGTGGGG | -0.482 |
| TTCATAGGTGACTTCCAGCAGC | -0.213 |
| TTGTTGACATTGTACTCGGCGG | -1.03 |
| TACTTTCCCGTCGCATACCTGG | -1.06 |
| ATAGGTGACTTCCAGCAGCAGC | -1.01 |
| TAGGTGGGGATGCTGAGCCGGG | -1.21 |
| TTCAGCTTGCCGGACCGCCGGG | -0.801 |
| TCCACGAACTCAAACACCGGGG | -1.02 |
| TTGAGCTGAAGCCTGCAGGCAG | -0.315 |
| TTGACAGCAGCCAAGTCGCGGA | -0.675 |

---

targetDesc: TAF3
testDetails: pooled miR-30 sensor sort-seq; sequence = guide strand
recordedConditions: shRNA
// map sensor-assay potency score (higher = more potent) to label using low (below 0.02), medium (0.02 to below 0.2), high (0.2 or more)

| polymerSequence | targetDesc | answerLabel |
| --- | --- | --- |
| TTCAGCTTCAGGACTATCCAGT | TAF3 | low |
| TAACACAACATCTAGCGTGTCC | TAF3 | high |
| TTTCACTTTATCCTTCTCCTTA | TAF3 | low |
| TTGTCCTTCTTCTTGTTCGCAC | TAF3 | medium |
| TAAACTTGTAGGGATCTGCCTC | TAF3 | medium |
| TTTGGGAGTAGTACACTCCGGG | TAF3 | medium |
| AATAACACAACATCTAGCGTGT | TAF3 | high |
| TTGATTTTAAACTTGTAGGGAT | TAF3 | high |
| TTCTTGTTCGCACACTTGGGGC | TAF3 | low |
| TATCTTTATCTTTCTTGCCTTT | TAF3 | low |
